Where do the numbers come from? From paper PMC12155096.

# system-name: human CYP2C9 (Homo sapiens, UniProt P11712)
# Sequence (P11712 whole entry): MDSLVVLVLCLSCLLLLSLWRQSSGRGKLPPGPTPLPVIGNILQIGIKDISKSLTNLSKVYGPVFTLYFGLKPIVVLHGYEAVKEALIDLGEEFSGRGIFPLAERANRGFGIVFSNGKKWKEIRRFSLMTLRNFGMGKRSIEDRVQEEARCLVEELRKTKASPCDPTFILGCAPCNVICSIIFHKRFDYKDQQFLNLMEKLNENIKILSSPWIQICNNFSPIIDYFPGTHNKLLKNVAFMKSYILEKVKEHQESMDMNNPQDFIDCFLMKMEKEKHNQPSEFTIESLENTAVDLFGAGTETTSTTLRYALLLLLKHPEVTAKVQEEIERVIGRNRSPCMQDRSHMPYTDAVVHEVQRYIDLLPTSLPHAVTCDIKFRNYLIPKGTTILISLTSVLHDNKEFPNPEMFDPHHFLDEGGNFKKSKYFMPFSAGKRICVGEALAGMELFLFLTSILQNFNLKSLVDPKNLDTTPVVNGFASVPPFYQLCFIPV
# test: biochemical
Structures can show the parent of a compound that is named as a salt.
Checkbox rule: AC50 lower than 30 µM = Criterion met; AC50 not lower than 30 µM = Criterion not met.

>  <compound>
O=C(c1ccc(O)cc1)c1ccc(O)cc1 [4,4'-Dihydoxybenzophenone]

>  <system-name>
human CYP2C9 (Homo sapiens, UniProt P11712)

>  <class-assignment>
Criterion met

$$$$
>  <compound>
CCNc1nc(NC(C)CC)nc(OC)n1 (stereo not shown) [Secbumeton]

>  <system-name>
human CYP2C9 (Homo sapiens, UniProt P11712)

>  <class-assignment>
Criterion not met

$$$$
>  <compound>
O=C(O)Cc1cc(I)c(Oc2cc(I)c(O)c(I)c2)c(I)c1 [Tetrac]

>  <system-name>
human CYP2C9 (Homo sapiens, UniProt P11712)

>  <class-assignment>
Criterion not met

$$$$

Hello, I'm reviewing records and need to know if AC50 of CCCOC(=O)c1ccc(C(=O)OCCC)nc1 [Dipropyl 2,5-pyridinedicarboxylate] is below 30 µM. Could you check?
Criterion met

Similarly, CCCN(CCc1cccs1)[C@H]1CCc2c(O)cccc2C1 [Rotigotine] ?
Criterion met

Similarly, O=C1OC2(c3ccccc31)c1ccc(O)c(Br)c1Oc1c2ccc(O)c1Br [4',5'-Dibromofluorescein] ?
Criterion not met

Similarly, Cc1cc(O)c(Cl)c(C)c1Cl [2,4-Dichloro-3,5-dimethylphenol] ?
Criterion met

Similarly, OC1(c2ccc(Cl)c(C(F)(F)F)c2)CCN(CCCC(c2ccc(F)cc2)c2ccc(F)cc2)CC1 [Penfluridol] ?
Criterion met

Similarly, Cn1cc(C(=O)[C@@H]2CCc3nc[nH]c3C2)c2ccccc21 [Ramosetron hydrochloride] ?
Criterion met

Similarly, CCCCOC(=O)CCCCC(=O)OCCCC [Dibutyl hexanedioate] ?
Criterion met
